Tested on: Wolbachia pipientis
Test: Anti-Wolbachia Cell-Based Screen
Format: functional
Set-up: scale not given: in the data most compounds retested in dose-response had high values
Recorded conditions: 5 µM
The whole screen tested about 48,000 compounds, of which about 13,000 (27%) showed an effect of 50% or more. The list shows a part of the results.
Measure name: Percent Effect (%)
Give the value in % but do not write % after it.

Take a look at these entries with their results.
[
  {
    "Molecule": "O=C(O)C(F)(F)F.O=C([C@@H]1CCO[C@@H]2CCN(CCc3ccccc3)C[C@@H]21)N1CCCC1",
    "System name": "Wolbachia pipientis",
    "Value reported": 117.3
  },
  {
    "Molecule": "Cc1nn2cc(CCNC(=O)c3cc(C(C)C)no3)nc2s1",
    "System name": "Wolbachia pipientis",
    "Value reported": -4.133
  },
  {
    "Molecule": "COCCc1noc(CN2CCCCC2Cn2cccn2)n1 (configuration not stated)",
    "System name": "Wolbachia pipientis",
    "Value reported": 100.4
  },
  {
    "Molecule": "COc1ccc(CC(=O)N2CCCC2Cn2cc(C)cn2)cc1OC (configuration not stated)",
    "System name": "Wolbachia pipientis",
    "Value reported": 112.4
  },
  {
    "Molecule": "O=C([C@@H]1CCO[C@@H]2CCN(CC3CC3)C[C@H]21)N1CCCC1",
    "System name": "Wolbachia pipientis",
    "Value reported": -26.98
  }
]

// lookup Percent Effect for c1cnn(CC2CCCN2Cc2nc(C3CC3)no2)c1 (configuration not stated)
112.2

Another molecule to check: COCCc1noc(CN2CCCC2Cn2cccn2)n1 (configuration not stated)
82.73

Another molecule to check: COc1ccccc1OCCC(=O)N1CCCC1Cn1cc(C)cn1 (configuration not stated)
-7.788

Another molecule to check: COc1ccccc1-c1noc(CN2CCCC2Cn2cccn2)n1 (configuration not stated)
-4.509

Another molecule to check: CSC(C)C(=O)N1CCN(CC(C)(C)O)CC1 (configuration not stated)
-3.379

Another molecule to check: COCCc1noc(CN2CCCC2Cn2cc(C)cn2)n1 (configuration not stated)
0.3604

Another molecule to check: COc1ccc(CC(=O)N2CCCC2Cn2cc(C)cn2)c(OC)c1 (configuration not stated)
126.4
